test system: ANKA strain of P. berghei; test: single dose STI in vivo screen in infected mice; design: species or system Plasmodium berghei; details: single 10 mg/kg po in 3% ethanol and 7% Tween 80; untreated control 5.6 ± 0.3
Measurement type: Survival (days) po

[[record]]
compound = "CC(=O)OC1(c2ccc(F)cc2)CCC2(CC1)OOC1(O2)C2CC3CC(C2)CC1C3 (centres unmarked)"
tgt = "ANKA strain of P. berghei"
value_reported = "6.3/NA/6.3 days"

[[record]]
compound = "O=C1c2ccccc2C(=O)N1[C@H]1CC[C@]2(CC1)OOC1(O2)C2CC3CC(C2)CC1C3 (some centres unmarked)"
tgt = "ANKA strain of P. berghei"
value_reported = "6.0/6.0/6.0 days"

[[record]]
compound = "CONC(=O)C[C@H]1CC[C@]2(CC1)OOC1(O2)C2CC3CC(C2)CC1C3 (some centres unmarked)"
tgt = "ANKA strain of P. berghei"
value_reported = "8.0/8.0/8.0 days"

[[record]]
compound = "O=[N+]([O-])c1ccc(C2(c3ccccc3)OOC3(O2)C2CC4CC(C2)CC3C4)cc1 (centres unmarked)"
tgt = "ANKA strain of P. berghei"
value_reported = "6.0/6.0/6.0 days"

[[record]]
compound = "O=C(O)CON=C1CCC2(CC1)OOC1(O2)C2CC3CC(C2)CC1C3 (centres unmarked)"
tgt = "ANKA strain of P. berghei"
value_reported = "7.0/NA/7.0 days"

